Every entry's value here was drawn from patent US20240010721A1.

# SYSTEM TESTED: ROR1 (antigen of the KD determination and of the Octet dissociation measurement) (UniProt Q01973 30-403, limits assumed)
# Sequence (Q01973 30-403 limits assumed): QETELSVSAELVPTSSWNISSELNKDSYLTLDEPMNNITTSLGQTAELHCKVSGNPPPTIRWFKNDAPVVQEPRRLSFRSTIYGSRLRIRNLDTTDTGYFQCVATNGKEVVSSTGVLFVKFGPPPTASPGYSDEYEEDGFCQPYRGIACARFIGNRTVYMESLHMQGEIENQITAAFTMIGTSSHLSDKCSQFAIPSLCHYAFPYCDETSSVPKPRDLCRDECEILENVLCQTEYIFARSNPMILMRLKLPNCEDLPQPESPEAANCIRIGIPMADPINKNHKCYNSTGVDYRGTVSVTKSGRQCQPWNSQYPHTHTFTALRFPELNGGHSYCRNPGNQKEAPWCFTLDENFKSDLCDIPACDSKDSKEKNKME
# ASSAY COMMENT: method not stated (conventional procedures)
// reported kon per item
Write down the numeric answer in M⁻¹ s⁻¹ and omit the unit.

Worked set:
PR001359 (antibody, human IgG1, kappa, V domains shown, fully human IgG1, kappa) VH: QVQLVESGGGVVQPGRSLRLSCAASGFTFSTYGMHWVRQAPGKGLEWVAVTWYDGSDKDYADSVKGRFTISRDTSKNTLYLQMNSLRAEDTAVYYCAREQARSFDLWGRGTLVTVSS VL: DIVMTQSPSTLSASVGDRVTITCRASQSVNNWLAWYQQKPGKAPKLLIYKASSLESGVPSRFSGSGSGTEFTLTISSLQPDDFATYYCQQYKSYSPMYTFGQGTKVEIKR | 320000
PR001364 (antibody, human IgG1, kappa, V domains shown, fully human IgG1, kappa; also called anti-ROR1 1015M3-D8 hIgG1; PR001364(WT)) VH: EVQLLESGGGVVQPGRSLRLSCAASGFTFSSFGMHWVRQAPGKGLEWVAVIWYDGSDKDYADSVKGRFTISRDTSKNTLYLQMNSLRAEDTAVYYCAREQARSFDLWGRGTLVTVSS VL: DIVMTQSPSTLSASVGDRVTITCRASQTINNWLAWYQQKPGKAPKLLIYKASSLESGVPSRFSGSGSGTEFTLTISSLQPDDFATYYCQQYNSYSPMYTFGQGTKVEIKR | 314000

query: Give the measured kon of PR001358 (antibody, human IgG1, kappa, V domains shown, fully human IgG1, kappa) VH: QVQLVQSGGGVVQPGRSLRLSCAASGFTFSSYAMHWVRQAPGKGLEWVAIMWYDGSNTDYADSVKGRFTISRDTSKNTLFLQMNSLRAEDTAVYYCAREQARSFDLWGRGTLVTVSS VL: DIVMTQSPSTLSASVGDRVTITCRASQSINSWLAWYQQKPGKAPKLLIYKASNLESGVPSRFSGSGSGTEFTLTISSLQPDDFATYYCQQYKSYSPMYTFGQGTKVDIKR .
result: 482000
